- Test system: hsa-mir-6850 loop
- test_protocol: normalised indicator fluorescence (fraction of RNA + indicator signal without compound); higher = less displacement of indicator (weaker competition)
- applied_conditions: compound concentration: 5 uM; 30 min; indicator: TO-PRO-1 0.1 uM; RNA concentration: 0.1 uM
reported_metric: normalised indicator fluorescence

>>> measured_value("O=C(Nc1ccc2[nH]nc(-c3ccncc3)c2c1)[C@@H]1CCN(CC(=O)N2CCN(c3ccc(-c4ncccn4)cc3)CC2)C1")
0.931
>>> measured_value("CCNC(=O)c1[nH]nc(-c2cc(Cl)c(O)cc2O)c1-c1ccc(OC)cc1")
0.952
>>> measured_value("CC1(C)CC(=O)c2c(C(F)(F)F)nn(-c3ccc(C(N)=O)c(N[C@H]4CC[C@H](O)CC4)c3)c2C1")
0.777
>>> measured_value("C/C1=C/CC[C@H](C)C(=O)C[C@@H](C(C)C)C(=O)C1")
1.14

---

- Tested on: hsa-mir-374a loop
- test_protocol: normalised indicator fluorescence (fraction of RNA + indicator signal without compound); higher = less displacement of indicator (weaker competition)
- applied_conditions: compound concentration: 5 uM; 30 min; indicator: TO-PRO-3 0.5 uM; RNA concentration: 0.5 uM
Documented normalised indicator fluorescence across a set of compounds
reported_metric: normalised indicator fluorescence

>>> measured_value("CC(=O)Oc1c(C)c(C)c2c(c1C)CCC(C)(CCC[C@H](C)CCC[C@H](C)CCCC(C)C)O2 (some centres undefined) [Vitamin E Acetate]")
1.02
>>> measured_value("COC(=O)C1=CC[C@@]23CC[C@@H]([C@@](C)(/C=C/C=C(\\C)C(=O)O)OC2=O)[C@@]3(OC(C)=O)CC1 [Pseudolaric Acid B]")
1.19
>>> measured_value("O=[N+]([O-])c1ccc(-c2nc(-c3ccc(F)cc3)c(-c3ccncc3)[nH]2)cc1")
1.15
>>> measured_value("CC1(C)CC(=O)c2c(C(F)(F)F)nn(-c3ccc(C(N)=O)c(N[C@H]4CC[C@H](O)CC4)c3)c2C1")
1.13
>>> measured_value("N#CC(c1ccnc(OCc2ccc(CN3CCOCC3)cc2)n1)c1nc2ccccc2s1 (centres undefined)")
0.694
>>> measured_value("COc1ccc(C(=C2C(=O)Nc3ccccc32)c2ccc(OC)cc2)cc1")
1.15
>>> measured_value("O=c1c(O)c(-c2cc(O)c(O)c(O)c2)oc2cc(O)cc(O)c12 [Myricetin]")
0.424
>>> measured_value("Oc1ccc(OC2CCCCO2)cc1 (centres undefined) [Deoxyarbutin]")
1.13
>>> measured_value("Cc1cc(NC(=O)c2cccc(NC(=O)/C=C/CN(C)C)c2)ccc1Nc1nccc(-c2cccnc2)n1")
1.05

---

- Test system: hsa-mir-191 loop
- test_protocol: normalised indicator fluorescence (fraction of RNA + indicator signal without compound); higher = less displacement of indicator (weaker competition)
- applied_conditions: compound concentration: 5 uM; 30 min; indicator: TO-PRO-1 0.1 uM; RNA concentration: 0.1 uM
reported_metric: normalised indicator fluorescence

>>> measured_value("CC(=O)c1ccc(S(=O)(=O)NC(=O)NC2CCCCC2)cc1 [Acetohexamide]")
0.972
>>> measured_value("CO[C@H]1/C=C/O[C@@]2(C)Oc3c(C)c(O)c4c(c3C2=O)C2=NC3(CCN(CC(C)C)CC3)NC2=C(NC(=O)/C(C)=C\\C=C\\[C@H](C)[C@H](O)[C@@H](C)[C@@H](O)[C@@H](C)[C@H](OC(C)=O)[C@@H]1C)C4=O [Rifabutin]")
1.04
>>> measured_value("C[C@@H]1O[C@@H](O[C@@H]2[C@@H](O)[C@H](OCCc3ccc(O)c(O)c3)O[C@H](CO)[C@H]2OC(=O)/C=C/c2ccc(O)c(O)c2)[C@H](O)[C@H](O)[C@H]1O [Verbascoside]")
1.1
>>> measured_value("NNC(=O)c1ccncc1 [Isoniazid]")
1.01
>>> measured_value("COc1ccc([C@@H]2OC[C@H]3[C@@H]2CO[C@@H]3c2ccc(O[C@@H]3O[C@H](CO)[C@@H](O)[C@H](O)[C@H]3O)c(OC)c2)cc1OC [Forsythin]")
1.06
>>> measured_value("O=C(O)CCc1ccc(O)cc1O [Hydroumbellic acid]")
1.11
>>> measured_value("COC(=O)C1=CC[C@@]23CC[C@@H]([C@@](C)(/C=C/C=C(\\C)C(=O)O)OC2=O)[C@@]3(OC(C)=O)CC1 [Pseudolaric Acid B]")
1.02
>>> measured_value("COC1=C2C[C@@H](C)C[C@H](OC)[C@H](O)[C@@H](C)/C=C(\\C)[C@H](OC(N)=O)[C@@H](OC)/C=C\\C=C(/C)C(=O)NC(=CC1=O)C2=O [Geldanamycin]")
1.09
>>> measured_value("CN(NC(=O)CC(=O)NN(C)C(=S)c1ccccc1)C(=S)c1ccccc1 [Elesclomol]")
1.05
>>> measured_value("O=c1cc(-c2ccccc2)oc2cc(O)c(O)c(O)c12 [Baicalein]")
0.599
>>> measured_value("CC(=O)O[C@H]1C[C@@]2(C)[C@@H](C[C@@H](O)[C@H]3[C@@]4(C)CC[C@@H](O)[C@@H](C)[C@@H]4CC[C@@]32C)/C1=C(\\CCC=C(C)C)C(=O)O [Sodium fusidate]")
1.06
>>> measured_value("O=C(O)/C=C/c1ccc(Cn2ccnc2)cc1 [Ozagrel]")
0.962
>>> measured_value("COC1=CC(=O)c2ccccc2C1=O [2-Methoxynaphthoquinone]")
1.01
>>> measured_value("CC(=O)CCCCn1c(=O)c2c(ncn2C)n(C)c1=O [Pentoxifylline]")
1.05

---

Let's look at some compounds and their measured normalised indicator fluorescence.
- Tested on: hsa-mir-21 loop
- test_protocol: normalised indicator fluorescence (fraction of RNA + indicator signal without compound); higher = less displacement of indicator (weaker competition)
- applied_conditions: compound concentration: 5 uM; 30 min; indicator: TO-PRO-3 0.5 uM; RNA concentration: 0.5 uM
Structures can show the parent of a compound that is named as a salt.
reported_metric: normalised indicator fluorescence

>>> measured_value("CC1=C[C@]2(O)O[C@@]3(CC2=C(C)C)[C@@H](C)CC[C@@H]13 [Curcumenol]")
1.04
>>> measured_value("C[C@@H]1O[C@@H](O[C@H]2[C@H](Oc3cc(O)c4c(c3)O[C@H](c3ccc(O)cc3)CC4=O)O[C@H](CO)[C@@H](O)[C@@H]2O)[C@H](O)[C@H](O)[C@H]1O [Naringin]")
1.08
>>> measured_value("O=CN1CC/C(=C/c2ccc3c(c2)OCO3)C1=O")
1.01
>>> measured_value("O=C1c2c(O)cc(O)cc2OC(c2ccc(O)c(O)c2)C1O (configuration not stated) [Taxifolin]")
1.05
>>> measured_value("CN1CCN(c2nc(C3=C(c4c[nH]c5ccccc45)C(=O)NC3=O)c3ccccc3n2)CC1 [Sotrastaurin]")
1.04
>>> measured_value("CC(=O)CCCCn1c(=O)c2c(ncn2C)n(C)c1=O [Pentoxifylline]")
1.04
>>> measured_value("O=c1cc(-c2ccc(O)c(-c3c(O)cc(O)c4c(=O)cc(-c5ccc(O)cc5)oc34)c2)oc2cc(O)cc(O)c12 [Amentoflavone]")
1.23
>>> measured_value("COc1nccnc1NS(=O)(=O)c1ccc(NC(=O)/C=C/c2ccc([N+](=O)[O-])s2)cc1 [Necrosulfonamide]")
1.08
>>> measured_value("NC(=O)N/N=C/c1ccc([N+](=O)[O-])o1 [Furacilin]")
1.06
>>> measured_value("O=C(NC(Cc1cc(=O)[nH]c2ccccc12)C(=O)O)c1ccc(Cl)cc1 (configuration not stated) [Rebamipide]")
1.03
>>> measured_value("CN1CCN(c2ccc(C(=O)Nc3n[nH]c4ccc(Cc5cc(F)cc(F)c5)cc34)c(NC3CCOCC3)c2)CC1 [Entrectinib]")
1.04
>>> measured_value("OC[C@H]1O[C@@H](Oc2ccc(O)cc2)[C@H](O)[C@@H](O)[C@@H]1O [Arbutin]")
1.03
>>> measured_value("COc1ccc(-c2nc(-c3cc(C(F)(F)F)cc(C(F)(F)F)c3)n(Cc3ccc(C(N)=O)cc3)c2-c2ccc(OC)cc2)cc1 [Apoptozole]")
1.03
>>> measured_value("O=c1cc(-c2ccc(O)cc2)oc2cc(O)cc(O)c12 [Apigenin]")
1
>>> measured_value("C1CCN2C[C@@H]3C[C@@H](CN4CCCC[C@@H]34)[C@H]2C1 [(-)-Sparteine sulfate pentahydrate]")
1.2
>>> measured_value("O=c1c(O)c(-c2ccccc2)oc2cc(O)cc(O)c12 [Galangin]")
1.04
>>> measured_value("Cc1cc(C(C)(C)C)c(O)c(C(C)(C)C)c1")
1

---

normalised indicator fluorescence listing for selected compounds.
- Tested on: hsa-mir-374a loop
- test_protocol: normalised indicator fluorescence (fraction of RNA + indicator signal without compound); higher = less displacement of indicator (weaker competition)
- applied_conditions: compound concentration: 5 uM; 30 min; indicator: TO-PRO-1 0.1 uM; RNA concentration: 0.1 uM
reported_metric: normalised indicator fluorescence

>>> measured_value("Oc1ccc(OCc2ccccc2)cc1")
1.27
>>> measured_value("C[C@H]1[C@H](C)CC[C@]2(C(=O)O)CC[C@]3(C)C(=CC[C@@H]4[C@@]5(C)C[C@@H](O)[C@H](O)[C@@](C)(CO)[C@@H]5CC[C@]43C)[C@H]12")
1.15
>>> measured_value("O=CN1CC/C(=C/c2ccc3c(c2)OCO3)C1=O")
1.1
>>> measured_value("C[C@H](CCC(=O)NCCS(=O)(=O)O)[C@H]1CC[C@H]2[C@@H]3[C@@H](O)C[C@@H]4C[C@H](O)CC[C@]4(C)[C@H]3CC[C@]12C")
1.06
>>> measured_value("N#CC(c1ccnc(OCc2ccc(CN3CCOCC3)cc2)n1)c1nc2ccccc2s1 (stereo not given)")
1.26
